Parameter: TGI. Scope: all listed entries.
# Tested on: SNB-75 CNS
# ASSAY_TEXT: NCI tumour cell line growth inhibition, 48 h

# COMPOUND, TGI
measured = [
    ("Nc1nc(SCC(=O)c2ccccc2)nc2nc3c(c(-c4ccccc4)c12)CCCC3", "78.6 µM"),
    ("COc1cccc(/C=N/[N-]C(N)=O)c1[O-].[OH3+].[Zn+2]", "> 100 µM"),
    ("Cc1cc(C)c2c(c1C)CN1CN2Cc2c(C)c(C)cc(C)c21", "58.1 µM"),
    ("CN(C)c1ccc(C=Nc2ccc(-c3nc4ccccc4o3)cc2)cc1", "> 100 µM"),
    ("COc1cccc(C2C3=C(COC3=O)N(CCO)c3cc4c(cc32)CCC4)c1 (stereo unspecified)", "0.397 µM"),
    ("COc1ccc2c(c1)CC[C@@H]1C2CC[C@]2(C)C(=O)N(C)C(=O)CC12 (stereo partly specified)", "> 100 µM"),
    ("CC(C)Cn1cnnc1NS(=O)(=O)c1cc(C(=O)NN)c(Cl)cc1S", "> 10 µM"),
    ("O=C(Nc1ccc(Cl)cc1)C(=O)C1=C(O)c2ccccc2OC1", "> 100 µM"),
    ("C#CCSc1nnnn1-c1ccc(Br)c(C)c1", "> 100 µM"),
    ("COC1(CCO)CC=CCC1(CCO)OC (stereo unspecified)", "> 100 µM"),
    ("COC(=O)Oc1nn(C(=O)OC)c(=O)c2ccccc12 (tested in a mixture with another compound)", "> 100 µM"),
]

* * *

# Tested on: TK-10 renal
# ASSAY_TEXT: NCI tumour cell line growth inhibition, 48 h
PROPERTY_LABEL: TGI

# MOLECULE, OBSERVED_MEASUREMENT
rows = [
    ("CC(=O)NC1C(OCc2ccccc2)OC(CO)C(O)C1OCC(=O)NC(C)C(=O)NC(CCC(=O)Nc1ccc2c(c1)CN1C(=O)c3ccccc3C1=N2)C(N)=O (stereo not given)", "> 100 µM"),
    ("CC1=C(C(=O)Nc2cc(F)c(F)cc2F)C(c2cccc([N+](=O)[O-])c2)C(C(=O)Nc2ccccc2C(F)(F)F)=C(C)N1 (stereo not given)", "71.5 µM"),
    ("Cc1ccc2c(c1)/C(=N\\N=C/c1cn(C(C)C)c3ccccc13)C(=O)N2", "> 100 µM"),
    ("CC1C2CC(CC2=O)C1(C)C (stereo not given)", "> 100 µM"),
    ("O=C(Nc1ccc(-n2cc(-c3ccncc3)c(-c3ccc(O)c(Cl)c3)n2)cc1)c1ccc(Cl)c(Cl)c1", "> 32.5 µM"),
    ("COc1cc(/C=C2\\N=C(c3ccccc3)N(/N=C/c3cc4cc(C)ccc4nc3Cl)C2=O)ccc1O", "> 100 µM"),
    ("COC(=O)C12C3C=CC(O3)C1C1C=CC2O1 (stereo not given)", "> 100 µM"),
    ("Cc1[nH]c2ncn(N)c(=N)c2c1Cc1ccccc1", "> 100 µM"),
    ("COc1cc2c(c(Br)c1N)-c1cc(Br)c(N)cc1C2=O", "> 100 µM"),
    ("Nc1nc(Cl)cc(NCC2(CO)CC(O)C2)n1 (stereo not given)", "> 100 µM"),
]

// data source = PubChem BioAssay (NCI)
